Test system: HeLa
Assay: Compound was tested for the antiviral activity against Human Rhinovirus -14(HRV-14) in HeLa cells
Assay type: functional, cell-based
pEC50: −log10 of the molar value.
readout.label: pEC50

{"molecular.string": "NC(=O)c1ccc2c(c1)C(=O)C(=O)N2C/C=C/c1ccccc1", "readout.label": "pEC50", "modifier.sign": "=", "measured.number": 5.20}
{"molecular.string": "NC(=O)c1ccc2c(c1)C(=O)C(=O)N2Cc1cccc(O)c1", "readout.label": "pEC50", "modifier.sign": "<", "measured.number": 4.70}
{"molecular.string": "COc1cccc(CN2C(=O)C(=O)c3cc(C(N)=O)ccc32)c1", "readout.label": "pEC50", "modifier.sign": "<", "measured.number": 4.70}
{"molecular.string": "CN1C(=O)C(=O)c2cc(C(=O)O)ccc21", "readout.label": "pEC50", "modifier.sign": "<", "measured.number": 4.00}
{"molecular.string": "NC(=O)c1ccc2c(c1)C(=O)C(=O)N2Cc1ccc2ccccc2c1", "readout.label": "pEC50", "modifier.sign": "<", "measured.number": 5.00}
{"molecular.string": "CN1C(=O)C(=O)c2cc(I)ccc21", "readout.label": "pEC50", "modifier.sign": "=", "measured.number": 4.15}
{"molecular.string": "NC(=O)c1ccc2c(c1)C(=O)C(=O)N2Cc1cc(O)cc(O)c1", "readout.label": "pEC50", "modifier.sign": "<", "measured.number": 4.00}
{"molecular.string": "NC(=O)c1ccc2c(c1)C(=O)C(=O)N2CCCc1ccccc1", "readout.label": "pEC50", "modifier.sign": "<", "measured.number": 5.15}
{"molecular.string": "COC(=O)c1ccc2c(c1)C(=O)C(=O)N2C", "readout.label": "pEC50", "modifier.sign": "=", "measured.number": 4.25}
{"molecular.string": "NC(=O)c1ccc2c(c1)C(=O)C(=O)N2Cc1cc2ccccc2s1", "readout.label": "pEC50", "modifier.sign": "<", "measured.number": 5.25}
{"molecular.string": "NC(=O)c1ccc2c(c1)C(=O)C(=O)N2Cc1ccccc1", "readout.label": "pEC50", "modifier.sign": "=", "measured.number": 4.85}
{"molecular.string": "CN1C(=O)C(=O)c2cc(C(N)=O)ccc21", "readout.label": "pEC50", "modifier.sign": "=", "measured.number": 4.18}
